Assay: in vitro
Assay type: cell-based, human
Details: human, HPL1A lung cells
Where a SMILES comes first, the peptide text is derived from it. [ ]: non-standard residue; d: D form. N(tridecyl)Gly = CCCCCCCCCCCCCNCC(=O)O; Gly(N-2-aminoethyl) = NCCNCC(=O)O; Gly(N-cHex) = O=C(O)CNC1CCCCC1; Nlys = NCCCCNCC(=O)O
assay_metric: CC50 at 72 h

# input Looking for the measured CC50 at 72 h of CCCCCCCCCCCCCNCC(=O)N(CC(=O)N(CCCCN)CC(=O)N(CCN)CC(=O)N(CC(N)=O)C1CCCCC1)C1CCCCC1 [RMG8-8, Ntri-Ncha-Nlys-Nae-Ncha] (H-[N(tridecyl)Gly][Gly(N-cHex)][Nlys][Gly(N-2-aminoethyl)][Gly(N-cHex)]-NH2) , can you help?
# output 74 µg/mL

----------
Assay: Mammalian cytotoxicity, MTT, HepG2
Type: cell-based, human
Conditions: human, HepG2 hepatocellular carcinoma cells; Example 1; 72 hours, MTT; read-out: TD50 HepG2
Where a SMILES comes first, the peptide text is derived from it. [ ]: non-standard residue; d: D form. N(tridecyl)Gly = CCCCCCCCCCCCCNCC(=O)O; Gly(N-2-aminoethyl) = NCCNCC(=O)O; Gly(N-cHex) = O=C(O)CNC1CCCCC1; Nlys = NCCCCNCC(=O)O
assay_metric: CC50 at 72 h (µg/mL)
One number for each entry, in µg/mL.

# input What value of CC50 at 72 h has been reported for the following compound? CCCCCCCCCCCCCNCC(=O)N(CC(=O)N(CCCCN)CC(=O)N(CCN)CC(=O)N(CC(N)=O)C1CCCCC1)C1CCCCC1 [RMG8-8, Ntri-Ncha-Nlys-Nae-Ncha] (H-[N(tridecyl)Gly][Gly(N-cHex)][Nlys][Gly(N-2-aminoethyl)][Gly(N-cHex)]-NH2)
# output 189

----------
Test system: C. neoformans
Format: cell-based, Cryptococcus neoformans
Settings: 72 h
Where a SMILES comes first, the peptide text is derived from it. [ ]: non-standard residue; d: D form. N(4-Br-benzyl)Gly = O=C(O)CNCc1ccc(Br)cc1; N(tridecyl)Gly = CCCCCCCCCCCCCNCC(=O)O; Gly(N-2-aminoethyl) = NCCNCC(=O)O; Nleu = CC(C)CNCC(=O)O; Nlys = NCCCCNCC(=O)O
assay_metric: C. neoformans MIC (µg/mL)
Answers are plain numbers, in µg/mL.

Example entries and their recorded answers appear below.
compound: CCCCCCCCCCCCCNCC(=O)N(CC(=O)N(CCCC[N+](C)(C)C)CC(=O)N(CC[N+](C)(C)C)CC(=O)N(CC(N)=O)C1CCCCC1)C1CCCCC1
assay_metric: C. neoformans MIC
readout_value: 12.5

compound: CCCCCCCCCCCCCNCC(=O)N(CC(=O)N(CCCCN)CC(=O)N(CCN)CC(=O)N(CC(N)=O)CC(C)C)CC(C)C [Compound 9] (H-[N(tridecyl)Gly][Nleu][Nlys][Gly(N-2-aminoethyl)][Nleu]-NH2)
assay_metric: C. neoformans MIC
readout_value: 3.13

compound: CCCCCCCCCCCCCNCC(=O)N(CC(=O)N(CCCCN)CC(=O)N(CCN)CC(=O)N(CC(N)=O)Cc1ccc(Br)cc1)Cc1ccc(Br)cc1 [Compound 19] (H-[N(tridecyl)Gly][N(4-Br-benzyl)Gly][Nlys][Gly(N-2-aminoethyl)][N(4-Br-benzyl)Gly]-NH2)
assay_metric: C. neoformans MIC
readout_value: 3.13

Turning to the following compound.
# input compound: CCCCCCCCCCCCCNCC(=O)N(CC(=O)N(CCCCN)CC(=O)N(CCN)CC(=O)N(CC(N)=O)c1cccc2ccccc12)c1cccc2ccccc12 ; wanted: its C. neoformans MIC
# output 6.25
